B1: TMEM106C (parent)
chain: FTGRDSITCLTCQGTGYIPTEQVN

# Variants of: B1
# experiment: protein stability index of a GFP-peptide fusion (GPS, HEK-293T) (PSI 1-6); higher = more stable;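 further: lentivirally expressed fusions sorted by FACS into six bins by GFP to DsRed ratio, PSI derived from sequencing read proportions per bin multiplied by bin number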
# experimental.context: c terminus: a fixed tail appended
Listing of entries alongside the reported protein stability index.
// no unit, no text: just the number

Inquiry: Can you look up the measured protein stability index of Q13K for me?
Reply text: 1.96

Inquiry: Can you look up the measured protein stability index of I18Q for me?
Reply text: 2

Inquiry: Can you look up the measured protein stability index of L10G for me?
Reply text: 2.02
